Reference source: ChEMBL document CHEMBL3988442

- experimentalTarget: Coenzyme A biosynthesis bifunctional protein CoaBC (Mycobacterium tuberculosis (strain ATCC 25618 / H37Rv))
- Sequence (P9WNZ1 whole entry): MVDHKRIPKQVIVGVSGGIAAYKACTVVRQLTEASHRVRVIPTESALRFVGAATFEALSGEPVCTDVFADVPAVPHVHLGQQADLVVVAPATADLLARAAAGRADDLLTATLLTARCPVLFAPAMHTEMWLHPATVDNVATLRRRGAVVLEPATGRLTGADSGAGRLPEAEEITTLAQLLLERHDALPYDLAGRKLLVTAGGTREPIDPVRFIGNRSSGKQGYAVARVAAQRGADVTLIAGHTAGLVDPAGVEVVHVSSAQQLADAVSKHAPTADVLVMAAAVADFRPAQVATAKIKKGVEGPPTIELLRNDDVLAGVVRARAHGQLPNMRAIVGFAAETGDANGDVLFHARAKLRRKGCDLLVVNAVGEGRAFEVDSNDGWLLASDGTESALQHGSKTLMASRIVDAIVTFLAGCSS
- assayExplanation: Biomol Green assay for MtCoaBC inhibitor, OD650 read
Overview of reported IC50 across a group of molecules:

Consider the worked cases shown below.
Nc1ccncc1-n1cc(CCO)cn1	> 30.2 µM
CC(=O)Nc1ccc(Oc2cccc(CN3CCCC3)c2)cc1	> 50.1 µM

We now examine a further molecule.
[ask] Entry COCCN1CC(C(=O)N(CCN(C)C)Cc2ccc(C)s2)CC1=O (configuration not stated) : reported IC50 = ?
[reply] > 30.2 µM

====

- assayExplanation: In vitro enzyme assay to detect hydrolysis of chlorophenol red-beta-D-[…] directly proportional to the number of Toxoplasma stably expressing beta-galactosidase
- Type: functional, organism-based, Toxoplasma gondii
- experimentalParameters: Toxoplasma gondii
Overview of reported IC50 across a group of compounds:

c1ccc(CNc2ccncc2)nc1	> 50.1 µM
COc1ccc(S(=O)(=O)N(C)C)cc1NCC1CC1	> 50.1 µM
CCCc1nc(NCCCn2ccnc2)c2c(n1)c(C)nn2CC	> 50.1 µM
CC(C)n1cc(S(=O)(=O)N2CCCCCC2)cn1	> 50.1 µM

[ask] Entry O=C1Nc2ccccc2CN(C/C=C/c2ccccc2)C12CCNC2 (stereo not drawn) : reported IC50 = ?
[reply] 15 µM

[ask] Entry CC(C)c1ccc(C(CN)N2CCc3sccc3C2)cc1 (stereo not drawn) : reported IC50 = ?
[reply] 13.4 µM
